Cited source for all entries: paper PMC8878317

System: P. falciparum 3D7 parasites
Assay: Metabolomic profiling of compound-treated parasites (LC/MS)
Format: cell-based
readout kind: Metabolite data: Sedoheptulose Bisphosphate
One number for each entry.

Record excerpt, results attached:
compound	quantitative result
O=C(NNC(=O)c1csnn1)c1ccc(Cl)cc1	-0.08586
N#Cc1cc(NC(=O)[C@H]2c3ccccc3C(=O)N(CC(F)(F)F)[C@@H]2c2cccnc2)ccc1F	-0.9288
O=C1C(O)=C([C@H]2CC[C@H](c3ccc(Cl)cc3)CC2)C(=O)c2ccccc21 [Atovaquone, reference compound]	0.01
CCN(CC)S(=O)(=O)c1ccc(Cl)c(C(=O)Nc2ccc3nc(C)sc3c2)c1	-0.09842
C[C@H]1Cc2c([nH]c3cc(Cl)c(F)cc23)[C@@]2(N1)C(=O)Nc1ccc(Cl)cc12	-1.34
CC1(C)N=C(N)N=C(N)N1OCCCOc1cc(Cl)c(Cl)cc1Cl	0.08

Provide Metabolite data: Sedoheptulose Bisphosphate values for the following items, in order.
1. Cc1cc(Nc2ccc3ccccc3c2)n2ncnc2n1
2. COc1cc2[nH]c(C)c(-c3ccc(Oc4ccc(OC(F)(F)F)cc4)cc3)c(=O)c2cc1Cl
3. CCc1nc(N)nc(N)c1-c1ccc(Cl)cc1

Result ::
-0.2224
0.0682
0.1986

* * *

Molecular target: PfAcAS WT (Plasmodium falciparum)
Sequence (C6KTB4 entry or part of it): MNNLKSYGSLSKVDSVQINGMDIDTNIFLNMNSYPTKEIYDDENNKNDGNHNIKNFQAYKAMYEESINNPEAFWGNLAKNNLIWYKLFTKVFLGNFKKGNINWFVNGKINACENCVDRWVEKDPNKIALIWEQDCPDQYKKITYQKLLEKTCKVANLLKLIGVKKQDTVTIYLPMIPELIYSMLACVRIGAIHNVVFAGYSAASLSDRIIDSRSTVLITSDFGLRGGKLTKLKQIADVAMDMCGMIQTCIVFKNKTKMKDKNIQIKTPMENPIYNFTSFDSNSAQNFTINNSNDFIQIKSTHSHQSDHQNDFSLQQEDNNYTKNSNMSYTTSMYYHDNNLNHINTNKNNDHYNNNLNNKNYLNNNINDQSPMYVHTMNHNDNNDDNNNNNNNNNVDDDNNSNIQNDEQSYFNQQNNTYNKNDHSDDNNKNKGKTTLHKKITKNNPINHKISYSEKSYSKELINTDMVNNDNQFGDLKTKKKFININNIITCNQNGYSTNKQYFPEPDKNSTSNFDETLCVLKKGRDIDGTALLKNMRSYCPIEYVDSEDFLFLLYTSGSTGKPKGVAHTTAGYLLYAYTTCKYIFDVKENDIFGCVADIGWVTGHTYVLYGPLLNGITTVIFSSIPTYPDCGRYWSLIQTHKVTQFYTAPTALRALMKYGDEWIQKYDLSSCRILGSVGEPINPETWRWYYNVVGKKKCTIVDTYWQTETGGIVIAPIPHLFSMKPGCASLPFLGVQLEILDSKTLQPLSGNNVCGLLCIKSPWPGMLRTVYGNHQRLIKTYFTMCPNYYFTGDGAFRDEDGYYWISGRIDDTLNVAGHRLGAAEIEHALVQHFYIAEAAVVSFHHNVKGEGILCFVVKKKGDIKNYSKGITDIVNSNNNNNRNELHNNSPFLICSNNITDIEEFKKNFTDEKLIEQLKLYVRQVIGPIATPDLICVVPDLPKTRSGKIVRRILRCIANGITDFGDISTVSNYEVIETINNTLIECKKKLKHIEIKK
Assay: PfAcAS mode of inhibition studies (EnzChek)
Format: biochemical, P. falciparum
Settings: variable acetate, saturating ATP and CoA; linear uncompetitive; read-out: Ki versus acetate
readout kind: pKi
One number for each entry, as −log10 of the molar value.

Query :: Recall the reported pKi of `CCN(CC)S(=O)(=O)c1ccc(Cl)c(C(=O)Nc2ccc3nc(C)sc3c2)c1` when tested on PfAcAS WT (Plasmodium falciparum).
Result :: 6.82

* * *

Tested on: P. falciparum 3D7 parasites
Assay: Metabolomic profiling of compound-treated parasites (LC/MS)
Type: cell-based
readout kind: Metabolite data: a-ketoglutarate

Check out these entries, answers already filled in.
compound structure string	result
N#Cc1cc(NC(=O)[C@H]2c3ccccc3C(=O)N(CC(F)(F)F)[C@@H]2c2cccnc2)ccc1F	0.4286
C[C@H]1Cc2c([nH]c3cc(Cl)c(F)cc23)[C@@]2(N1)C(=O)Nc1ccc(Cl)cc12	0.5
CCc1nc(N)nc(N)c1-c1ccc(Cl)cc1	0.2017

Query :: Note Metabolite data: a-ketoglutarate for the molecule shown: `COc1cc2[nH]c(C)c(-c3ccc(Oc4ccc(OC(F)(F)F)cc4)cc3)c(=O)c2cc1Cl`
Result :: 0.1255

* * *

System: P. falciparum 3D7 parasites
Assay: Metabolomic profiling of compound-treated parasites (LC/MS)
Format: cell-based
readout kind: Metabolite data: Phenol Red
One number for each entry.

compound	quantitative result
N#Cc1cc(NC(=O)[C@H]2c3ccccc3C(=O)N(CC(F)(F)F)[C@@H]2c2cccnc2)ccc1F	0

Record Metabolite data: Phenol Red for all entries; do not skip any.
1. O=C(NNC(=O)c1csnn1)c1ccc(Cl)cc1
2. O=C1C(O)=C([C@H]2CC[C@H](c3ccc(Cl)cc3)CC2)C(=O)c2ccccc21 [Atovaquone, reference compound]
3. CC1(C)N=C(N)N=C(N)N1OCCCOc1cc(Cl)c(Cl)cc1Cl
4. C[C@H]1Cc2c([nH]c3cc(Cl)c(F)cc23)[C@@]2(N1)C(=O)Nc1ccc(Cl)cc12
5. Cc1cc(Nc2ccc3ccccc3c2)n2ncnc2n1
6. COc1cc2[nH]c(C)c(-c3ccc(Oc4ccc(OC(F)(F)F)cc4)cc3)c(=O)c2cc1Cl

Result ::
1: -0.09162; 2: 0; 3: 0; 4: 0; 5: 0; 6: 0

For each entry beneath this line, provide reported Metabolite data: Phenol Red.
1. CCc1nc(N)nc(N)c1-c1ccc(Cl)cc1
2. CCN(CC)S(=O)(=O)c1ccc(Cl)c(C(=O)Nc2ccc3nc(C)sc3c2)c1

Result ::
[0, 0.04234]
